tested.system: T1, ZFP SBS#766 (synthetic)
T1 chain: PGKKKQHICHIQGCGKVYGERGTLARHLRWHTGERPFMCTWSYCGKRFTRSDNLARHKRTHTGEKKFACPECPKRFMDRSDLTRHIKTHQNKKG
method.description: EMSA
experimental.parameters: tags: MBP fusion
measurement.name: pKd
Remember the convention: pKd equals -log10 of concentration in molar.

### Prompt Please list pKd recorded for the binder GCCGAGGCCG (dsDNA) DNA 1: GCCGAGGCCG DNA 2: CGGCCTCGGC
### Response 6.58

Reference for the values: patent US20030068675
